All values here come from patent US9770452B2.

system-name: GPR6 receptor (Homo sapiens)
Construct: expressed in transfected cells
Sequence (P46095 whole entry): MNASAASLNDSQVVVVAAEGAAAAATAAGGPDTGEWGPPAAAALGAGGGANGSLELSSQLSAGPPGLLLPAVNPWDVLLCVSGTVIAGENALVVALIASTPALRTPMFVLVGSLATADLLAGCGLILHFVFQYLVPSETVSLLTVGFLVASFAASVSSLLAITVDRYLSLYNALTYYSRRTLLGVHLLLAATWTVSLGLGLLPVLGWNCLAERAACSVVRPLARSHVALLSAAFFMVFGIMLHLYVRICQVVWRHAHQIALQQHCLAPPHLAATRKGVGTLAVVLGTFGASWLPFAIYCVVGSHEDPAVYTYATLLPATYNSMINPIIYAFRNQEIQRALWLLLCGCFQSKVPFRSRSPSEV
test-summary: Inhibition of cAMP Activity of GPR6 In Vitro Assay (CHO-K1 cells, HTRF cAMP)
Format: cell-based
condition-description: compounds of Compound Table 1; inhibition of constitutive cAMP activity of GPR6 expressed in CHO-K1 cells; approximate IC50; read-out: IC50
quantity: IC50

INSERT INTO assay_data (molecule, quantity, meas_value) VALUES
  ('CC(C)CNc1nc2ccccc2nc1N1CCN(Cc2cc(Cl)ccc2Cl)CC1 [Cpd 110]', 'IC50', '6.03 µM'),
  ('O=C(c1cc(Cl)ccc1Cl)N1CCN(c2nc3ccccc3nc2NC2CCCC2)CC1 [Cpd 39]', 'IC50', '6.15 µM'),
  ('C[C@@H]1C[C@H]1Nc1nc2cnncc2nc1N1CCC([C@@H](F)c2ccc(F)cc2F)CC1 [Cpd 645]', 'IC50', '0.145 µM'),
  ('Clc1cccc(CN2CCN(c3nc4cccnc4nc3Nc3ccccc3)CC2)c1 [Cpd 22]', 'IC50', '7.67 µM');
